# assay.target: Ribosomal protein S6 kinase beta-1 (Homo sapiens)
# Sequence (P23443 whole entry): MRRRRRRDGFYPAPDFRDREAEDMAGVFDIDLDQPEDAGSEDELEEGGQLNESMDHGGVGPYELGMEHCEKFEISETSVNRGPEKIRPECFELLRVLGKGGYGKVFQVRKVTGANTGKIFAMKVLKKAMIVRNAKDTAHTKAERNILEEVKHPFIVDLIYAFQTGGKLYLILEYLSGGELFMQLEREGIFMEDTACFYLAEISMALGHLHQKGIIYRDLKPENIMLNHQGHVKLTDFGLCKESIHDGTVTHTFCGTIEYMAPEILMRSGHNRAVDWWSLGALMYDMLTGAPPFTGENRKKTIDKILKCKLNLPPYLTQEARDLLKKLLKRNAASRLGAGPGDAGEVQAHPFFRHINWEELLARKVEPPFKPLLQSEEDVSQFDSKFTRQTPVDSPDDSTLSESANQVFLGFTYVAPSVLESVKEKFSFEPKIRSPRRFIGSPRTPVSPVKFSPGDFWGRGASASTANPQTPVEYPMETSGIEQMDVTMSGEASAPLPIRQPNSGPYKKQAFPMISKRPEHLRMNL
quantity.measured: pIC50
Worth noting: pIC50 values are minus log10 of concentrations stated in mol/L.

Here's what some known entries look like.
structure.smiles | pIC50
COc1cc2ncc3c(N)nc(-c4cncc(OC[C@@H](N)Cc5c[nH]c6ccccc56)c4)cc3c2cc1OC | 7.11
COc1cc2ncc3c(N)nc(-c4cncc(OC[C@@H](N)CC(C)C)c4)cc3c2cc1OC | 6.66
COc1cc2ncc3c(N)nc(-c4cncc(OC[C@H](N)CC(C)C)c4)cc3c2cc1OC | 6.35

Return reported pIC50 for target or system Ribosomal protein S6 kinase beta-1 (Homo sapiens), item `COc1cc2ncc3c(N)nc(-c4cncc(OCCN)c4)cc3c2cc1OC` .
7.10

# lookup: Ribosomal protein S6 kinase beta-1 (Homo sapiens) pIC50, key = `COc1cc2ncc3c(N)nc(-c4cncc(OC[C@@H](N)Cc5cccc(C(F)(F)F)c5)c4)cc3c2cc1OC`
6.74

Write down the reported pIC50 (system: Ribosomal protein S6 kinase beta-1 (Homo sapiens)) of `COc1cc2ncc3c(N)nc(-c4cncc(OC[C@@H](N)Cc5ccccc5)c4)cc3c2cc1OC`
6.97

Report the value of pIC50 obtained on Ribosomal protein S6 kinase beta-1 (Homo sapiens) for `COc1cc2ncc3c(N)nc(-c4cncc(OC[C@@H](N)Cc5ccc(F)cc5)c4)cc3c2cc1OC` .
7.68

---

RAC-alpha serine/threonine-protein kinase (Homo sapiens) data, read-out pIC50
Sequence (P31749 whole entry): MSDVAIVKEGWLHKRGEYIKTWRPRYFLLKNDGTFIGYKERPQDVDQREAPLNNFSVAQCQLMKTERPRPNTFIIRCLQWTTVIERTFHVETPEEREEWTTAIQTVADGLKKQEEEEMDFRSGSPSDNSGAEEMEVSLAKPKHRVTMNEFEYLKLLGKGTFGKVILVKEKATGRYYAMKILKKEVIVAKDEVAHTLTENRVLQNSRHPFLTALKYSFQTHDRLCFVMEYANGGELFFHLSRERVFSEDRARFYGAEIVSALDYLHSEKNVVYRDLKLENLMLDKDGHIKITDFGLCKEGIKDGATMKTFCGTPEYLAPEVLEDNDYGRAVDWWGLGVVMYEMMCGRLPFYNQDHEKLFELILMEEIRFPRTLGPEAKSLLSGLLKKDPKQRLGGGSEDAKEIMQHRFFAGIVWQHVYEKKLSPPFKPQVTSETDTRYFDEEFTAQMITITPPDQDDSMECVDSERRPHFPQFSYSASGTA
Recall that pIC50 is obtained by taking minus log10 of the concentration measured in molar.

structure.smiles | assay.target | pIC50
COc1cc2ncc3c(N)nc(-c4cncc(OC[C@H](N)Cc5c[nH]c6ccccc56)c4)cc3c2cc1OC | RAC-alpha serine/threonine-protein kinase (Homo sapiens) | 5.88
COc1cc2ncc3c(N)nc(-c4cncc(OC[C@@H](N)Cc5ccncc5)c4)cc3c2cc1OC | RAC-alpha serine/threonine-protein kinase (Homo sapiens) | 5.76
CC[C@@H](N)COc1cncc(-c2cc3c(cnc4cc(OC)c(OC)cc43)c(N)n2)c1 | RAC-alpha serine/threonine-protein kinase (Homo sapiens) | 6.50

Name the value of pIC50 reported for `COc1cc2ncc3c(N)nc(-c4cncc(OC[C@@H](N)Cc5cccc(Cl)c5)c4)cc3c2cc1OC` when tested on RAC-alpha serine/threonine-protein kinase (Homo sapiens).
7.11

Lab note: record pIC50 of `COc1cc2ncc3c(N)nc(-c4cncc(OC[C@H](N)Cc5ccc(F)cc5)c4)cc3c2cc1OC` tested on RAC-alpha serine/threonine-protein kinase (Homo sapiens).
6.60
